# Tested on: Streptococcus
# method: Group A Streptococcus viability loss, dose response, counter-screen for streptokinase expression inhibitor project, luminescence, BacTiterGlo (AID 1915);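 further: potency for reduction of bacterial viability or growth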
# Assay type: functional, organism-based
Activity calls are given as the source filed them.

{"molecule": "COC(C(=O)Nc1ccnn1C1CCN(Cc2nccs2)CC1)c1ccccc1 (stereo not given)", "measured.on": "Streptococcus", "EC50": "> 150 µM (not active)"}
{"molecule": "CC(C)c1ccc(OCC(=O)NNC(=S)NC(=O)c2ccco2)c(Br)c1", "measured.on": "Streptococcus", "EC50": "0.141 µM (active)"}
{"molecule": "CCN(CC)C(=O)c1cc(-c2ccc(Br)cc2)on1", "measured.on": "Streptococcus", "EC50": "> 150 µM (not active)"}
{"molecule": "Oc1nc2c(s1)C=Nc1ccccc1N2", "measured.on": "Streptococcus", "EC50": "> 150 µM (not active)"}
{"molecule": "CN1C(=O)/C(=C/c2ccccc2F)Sc2ccc(C(=O)NCC3CCCO3)cc21 (stereo not given)", "measured.on": "Streptococcus", "EC50": "15.6 µM (active)"}
{"molecule": "COC(=O)c1c[nH]nc1N=C(S)Nc1ccc(C)cc1Cl", "measured.on": "Streptococcus", "EC50": "> 150 µM (not active)"}
{"molecule": "Cc1nnc(SCC2=C(C(=O)O)N3C(=O)C(NC(=O)C(C)n4nc(C(F)(F)F)cc4C)C3SC2)s1 (stereo not given)", "measured.on": "Streptococcus", "EC50": "0.421 µM (active)"}
{"molecule": "CCCC(=O)Nc1ccc2c(c1)nc(CCNC(=O)c1ccccc1)n2C", "measured.on": "Streptococcus", "EC50": "> 150 µM (not active)"}
{"molecule": "CCCCCCCn1c(=O)c(C(=O)Nc2cnccn2)c(O)c2ccccc21", "measured.on": "Streptococcus", "EC50": "6.65 µM (active)"}
{"molecule": "COc1ccc(C(=O)CC(=O)C(=O)Nc2ccccc2C(F)(F)F)cc1", "measured.on": "Streptococcus", "EC50": "8.59 µM (active)"}

----------
# measured.on: UniProt P24666
# Sequence (P24666 whole entry): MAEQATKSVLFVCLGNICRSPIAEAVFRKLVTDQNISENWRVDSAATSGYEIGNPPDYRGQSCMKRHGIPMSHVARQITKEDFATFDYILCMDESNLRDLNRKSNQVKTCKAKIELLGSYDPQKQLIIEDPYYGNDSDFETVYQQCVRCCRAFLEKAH
# Type: functional
# conditions.used: read-out: IC50_Mean
Activity calls are given as the source filed them.
Classes used: active, inactive

{"item.smiles": "COc1ccc(Nc2nc(NCc3cccs3)nc3ccsc23)cc1OC", "category.label": "active"}
{"item.smiles": "COc1ccc(NC(=O)CSc2sc3c(O)cc(=O)[nH]c3c2C#N)c(OC)c1", "category.label": "inactive"}
{"item.smiles": "O=C(N/N=C/c1ccc(Br)s1)c1cccc([N+](=O)[O-])c1", "category.label": "active"}
{"item.smiles": "O=C(O)c1cccc(NC(=O)c2cn(-c3ccccc3)nc2-c2cc3ccccc3o2)c1", "category.label": "active"}

----------
# measured.on: Heat shock factor protein 1 (Mus musculus)
# Sequence (P38532 whole entry): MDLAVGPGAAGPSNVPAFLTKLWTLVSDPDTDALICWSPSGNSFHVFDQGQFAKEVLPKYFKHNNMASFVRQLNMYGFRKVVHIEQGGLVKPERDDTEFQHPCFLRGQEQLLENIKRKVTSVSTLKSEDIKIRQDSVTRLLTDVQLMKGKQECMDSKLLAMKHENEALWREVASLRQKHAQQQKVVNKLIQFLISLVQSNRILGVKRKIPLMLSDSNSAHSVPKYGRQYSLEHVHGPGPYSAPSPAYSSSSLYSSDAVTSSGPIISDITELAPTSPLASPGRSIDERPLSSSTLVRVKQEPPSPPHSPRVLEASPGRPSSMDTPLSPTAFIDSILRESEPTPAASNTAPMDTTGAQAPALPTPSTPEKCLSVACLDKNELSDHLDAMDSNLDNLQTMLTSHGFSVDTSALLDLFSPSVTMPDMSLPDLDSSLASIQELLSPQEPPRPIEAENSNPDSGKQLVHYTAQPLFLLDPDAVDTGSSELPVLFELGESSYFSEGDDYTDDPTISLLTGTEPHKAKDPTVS
# method: inhibition of MG132-induced HSE-luciferase signal, confirmation, cell-based, NIH3T3, luminescence, dose retest (AID 2382);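 further: NIH3T3 fibroblasts with HSF1-driven luciferase reporter stressed by proteasome inhibitor MG132; luminescence from HSF1-driven luciferase expression after 8 hours of MG132 stress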
# Assay type: functional
Active and inactive are the calls of the source.
Parameter: EC50. Scope: all listed entries.

{"compound": "CC1Cc2ccccc2N1C(=O)CO/N=C/c1ccc(OC(F)F)cc1 (stereo unspecified)", "EC50": "> 195 µM (not active)"}
{"compound": "CC(C)CCN(C(=O)CNC(=O)c1cccs1)C(C(=O)NC1CCCCC1)c1cccnc1 (stereo unspecified)", "EC50": "> 195 µM (not active)"}
{"compound": "CCc1cc(C(=O)NCC(C)(C)N2CCOCC2)sc1C", "EC50": "> 195 µM (not active)"}
{"compound": "Cc1ccc(C)c(N2CCN(C(=O)CCCCCn3c(=S)[nH]c4ccc(N5CCOCC5)cc4c3=O)CC2)c1", "EC50": "5.28 µM (active)"}
{"compound": "CC1(C)CC(=O)C2=C(C1)OC(N)=C(C#N)C2c1ccccc1 (stereo unspecified)", "EC50": "> 195 µM (not active)"}
{"compound": "Cc1cccc(N2CCN(Cc3nc(-c4ccccc4Cl)oc3C)CC2)n1", "EC50": "> 195 µM (not active)"}

----------
# measured.on: COUP transcription factor 2 (Homo sapiens, UniProt P24468)
# Sequence (P24468 whole entry): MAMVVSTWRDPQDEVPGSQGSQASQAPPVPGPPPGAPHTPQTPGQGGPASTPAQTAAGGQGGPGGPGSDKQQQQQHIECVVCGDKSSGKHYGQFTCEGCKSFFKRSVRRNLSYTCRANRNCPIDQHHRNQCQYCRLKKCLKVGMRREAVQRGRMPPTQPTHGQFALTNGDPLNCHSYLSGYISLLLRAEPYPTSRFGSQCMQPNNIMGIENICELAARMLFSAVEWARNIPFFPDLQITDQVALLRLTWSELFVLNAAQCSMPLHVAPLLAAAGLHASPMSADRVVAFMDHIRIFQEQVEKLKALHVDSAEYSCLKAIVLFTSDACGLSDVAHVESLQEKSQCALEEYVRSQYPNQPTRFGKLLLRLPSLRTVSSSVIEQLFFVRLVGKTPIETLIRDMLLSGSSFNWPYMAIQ
# method: Luminescence-based cell-based high throughput dose response assay to identify inhibitors of COUP-TFII (NR2F2).
# Assay type: functional
Active and inactive are the calls of the source.
result.type: IC50

{"compound": "O=C(CSc1cc(Cl)ccc1Cl)N/N=C/c1ccc[nH]1", "result.type": "IC50", "reading": "15 µM (inactive)"}
{"compound": "COc1cc2c(cc1OC)C1C(=O)c3ccc4c(c3OC1CO2)CC(C(C)C)O4 (centres undefined)", "result.type": "IC50", "reading": "0.519 µM (active)"}
{"compound": "COC(=O)C1CCCCN1C(=O)c1cc(COc2cccc3cnccc23)on1 (centres undefined)", "result.type": "IC50", "reading": "7.34 µM (active)"}
{"compound": "O=S(=O)(NCC1CCCO1)c1ccc(-c2ccc(S(=O)(=O)NCC3CCCO3)cc2)cc1 (centres undefined)", "result.type": "IC50", "reading": "2.02 µM (active)"}

----------
# measured.on: DNA dC->dU-editing enzyme APOBEC-3A (Homo sapiens)
# Sequence (P31941 whole entry): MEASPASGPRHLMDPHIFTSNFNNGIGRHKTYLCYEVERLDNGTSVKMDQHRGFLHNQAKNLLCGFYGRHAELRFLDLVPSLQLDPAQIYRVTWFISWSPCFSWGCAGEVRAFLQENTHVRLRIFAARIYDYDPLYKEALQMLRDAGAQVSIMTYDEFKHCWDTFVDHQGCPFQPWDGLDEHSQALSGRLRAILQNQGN
# method: Dose Response confirmation of small molecule APOBEC3A DNA Deaminase Inhibitors via a fluorescence-based single-stranded DNA deaminase assay. [Related pubchem assays (depositor defined):AID493011, AID493024]
# Format: functional
Active and inactive are the calls of the source.
Parameter: IC50. Scope: all listed entries.
result.type: IC50

{"compound": "CC(=O)OCCCn1c(C)[n+](C)c2cc(Cl)c(Cl)cc21", "result.type": "IC50", "reading": "2270 nM (active)"}
{"compound": "O=C(COc1ccccc1/C=C1/NC(=O)NC1=O)Nc1ccccc1", "result.type": "IC50", "reading": "3710 nM (active)"}
{"compound": "CC1=CC(C)(C)[N+](C)(C)c2ccc(C)cc21", "result.type": "IC50", "reading": "2060 nM (active)"}
{"compound": "CC(=O)OC(COC1C[C@@H]2CC[C@@]1(C)C2(C)C)C[N+]1(C)CCCCC1 (some centres undefined)", "result.type": "IC50", "reading": "1910 nM (active)"}

----------
# method: cells
# Assay type: functional, cell-based
Calls of active or inactive are those of the source.
result.type: EC50

{"compound": "CC(=O)Nc1ccc(S(=O)(=O)[N-]C2=C([n+]3ccn(-c4ccccn4)c3)C(=O)c3ccccc3C2=O)cc1", "result.type": "EC50", "reading": "> 350 µM (not active)"}
{"compound": "Cc1ccc2nc(NNC(=O)c3ccc(S(=O)(=O)N4CCc5ccccc5C4)cc3)sc2c1", "result.type": "EC50", "reading": "13.5 µM (active)"}
{"compound": "CC(C)C(=O)NC(c1cccc([N+](=O)[O-])c1)c1ccc2cccnc2c1O (stereo not given)", "result.type": "EC50", "reading": "6.78 µM (active)"}
{"compound": "COc1cccc(C(C[N+](=O)[O-])c2c(C)[nH]n(-c3ccccc3)c2=O)c1 (stereo not given)", "result.type": "EC50", "reading": "> 350 µM (not active)"}
{"compound": "C=CCc1c(C)nc2c(-c3ccccc3)cnn2c1N1CCOCC1", "result.type": "EC50", "reading": "> 350 µM (not active)"}

----------
Parameter: EC50. Scope: all listed entries.
# measured.on: UniProtKB P47898
# Sequence (P47898 whole entry): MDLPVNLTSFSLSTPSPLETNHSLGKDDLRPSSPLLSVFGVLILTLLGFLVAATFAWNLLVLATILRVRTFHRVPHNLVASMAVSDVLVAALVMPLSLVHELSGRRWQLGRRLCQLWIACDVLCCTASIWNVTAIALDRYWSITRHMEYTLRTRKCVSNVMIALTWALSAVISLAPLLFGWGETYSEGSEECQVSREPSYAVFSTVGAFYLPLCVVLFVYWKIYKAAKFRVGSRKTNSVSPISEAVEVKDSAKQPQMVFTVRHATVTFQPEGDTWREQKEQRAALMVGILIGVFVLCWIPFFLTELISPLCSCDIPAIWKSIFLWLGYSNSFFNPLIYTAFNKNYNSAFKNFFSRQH
# method: Counterscreen for agonists of OPRM1-OPRD1 heterodimerization: luminescence-based cell-based high throughput dose response assay to identify agonists of 5-hydroxytryptamine (serotonin) 5A receptor (HTR5A). [Related pubchem assays (depositor defined):AID504326, AID504355, AID504692, AID504904, AID504905]
# Format: functional
Active and inactive are the calls of the source.

{"compound": "CC(=O)Nc1ccc(S(=O)(=O)NC2=C(N3CCN(Cc4ccccc4)CC3)C(=O)c3ccccc3C2=O)cc1", "EC50": "> 92.4 µM (inactive)"}
{"compound": "CC1CN(C)C(C)c2c1oc1ccc(N)cc21 (configuration not stated)", "EC50": "> 92.5 µM (inactive)"}
{"compound": "CCc1ccc(NC(=O)Nc2ccc3c(c2)N(C)C(=O)CS3)cc1", "EC50": "> 92.5 µM (inactive)"}
{"compound": "CCOC(=O)C1(CC2CCCCO2)CCN(Cc2nc(-c3cccs3)oc2C)CC1 (configuration not stated)", "EC50": "> 92.5 µM (inactive)"}
{"compound": "COc1ccc(-c2nn(-c3ccccc3C)cc2CNCc2cccnc2)cc1F", "EC50": "> 92.5 µM (inactive)"}
{"compound": "Cc1ccc(CC(=O)NCC(c2ccco2)N(C)C)cc1C (configuration not stated)", "EC50": "> 92.4 µM (inactive)"}
{"compound": "O=C(N[C@H]1C/C=C\\C[C@H](CC(=O)N(CCO)Cc2ccccc2)C(=O)N[C@H](Cc2c[nH]c3ccccc23)COC1=O)OCC1c2ccccc2-c2ccccc21", "EC50": "> 92.5 µM (inactive)"}
